Biological target: ATP-citrate lyase (ACLY) (Homo sapiens)
Construct: purchased BPS Bioscience
Sequence (P53396 1-1101): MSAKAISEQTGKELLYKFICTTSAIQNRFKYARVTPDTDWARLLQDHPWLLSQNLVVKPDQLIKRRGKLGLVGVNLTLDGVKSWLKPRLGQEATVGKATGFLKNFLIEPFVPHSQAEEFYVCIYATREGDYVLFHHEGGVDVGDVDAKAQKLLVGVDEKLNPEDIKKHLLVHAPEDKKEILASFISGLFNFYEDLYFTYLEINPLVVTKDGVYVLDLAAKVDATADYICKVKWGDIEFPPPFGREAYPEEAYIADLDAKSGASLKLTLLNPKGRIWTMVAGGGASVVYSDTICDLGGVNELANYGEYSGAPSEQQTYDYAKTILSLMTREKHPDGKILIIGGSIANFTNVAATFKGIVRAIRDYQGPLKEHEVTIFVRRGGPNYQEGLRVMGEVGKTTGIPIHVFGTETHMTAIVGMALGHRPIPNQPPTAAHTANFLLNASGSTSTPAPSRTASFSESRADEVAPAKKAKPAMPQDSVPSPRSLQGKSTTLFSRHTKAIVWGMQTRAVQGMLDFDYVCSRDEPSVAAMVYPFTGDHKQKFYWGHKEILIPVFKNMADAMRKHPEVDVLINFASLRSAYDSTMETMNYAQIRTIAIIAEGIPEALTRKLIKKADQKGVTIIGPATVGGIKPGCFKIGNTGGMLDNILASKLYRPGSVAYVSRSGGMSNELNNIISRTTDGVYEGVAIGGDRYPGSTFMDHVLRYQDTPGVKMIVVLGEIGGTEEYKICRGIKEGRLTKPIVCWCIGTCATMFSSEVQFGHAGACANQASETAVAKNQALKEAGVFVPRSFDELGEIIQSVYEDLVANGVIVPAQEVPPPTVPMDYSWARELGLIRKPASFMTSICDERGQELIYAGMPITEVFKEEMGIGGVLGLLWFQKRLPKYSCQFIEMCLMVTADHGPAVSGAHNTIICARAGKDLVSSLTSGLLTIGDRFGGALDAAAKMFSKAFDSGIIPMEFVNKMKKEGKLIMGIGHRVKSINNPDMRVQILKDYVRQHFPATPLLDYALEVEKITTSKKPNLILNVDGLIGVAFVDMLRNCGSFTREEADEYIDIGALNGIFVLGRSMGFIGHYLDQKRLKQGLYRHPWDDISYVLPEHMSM
Test: ACLY Assay Kit (ADP-Glo) enzymatic activity
Format: biochemical
Conditions: same assay as GS27; read-out: IC50 against ACLY enzyme
pIC50: −log10 of the molar value.
readout_label: pIC50

compound	result
C/C=C(/C=O)[C@@H](CC=O)CC(=O)OCCc1ccc(O)cc1 [GS19, reference compound]	< 5.00

Now consider a different compound.
Asked: // query pIC50 value for entry C/C=C1/[C@H](O[C@@H]2O[C@H](CO)[C@@H](O)[C@H](O)[C@H]2O)OC=C(C(=O)OC)[C@H]1CC(=O)OCCc1ccc(O)c(O)c1
Given back: < 5.00

---

Exercise: for every item that follows, state its recorded Deoxyribose Degradation Assay IC50.
assay: Deoxyribose degradation assay (hydroxyl radical scavenging); format: biochemical; details: NS = not statistically significant
One number for each entry, in μg extract/mL.

Example entries begin here.
compound	Deoxyribose Degradation Assay IC50 / μg extract/mL
C/C=C(/C=O)[C@@H](CC=O)CC(=O)OCCOc1ccccc1 [GS24]	16.1
C/C=C(/C=O)[C@@H](CC=O)CC(=O)OCCc1ccc(O)cc1 [GS19, reference compound]	31.9
C/C=C(/C=O)[C@@H](CC=O)CC(=O)OCCc1ccccc1 [GS21]	14.4
C/C=C(/C=O)[C@@H](CC=O)CC(=O)OCCc1ccc(O)c(O)c1 [GS17, reference compound]	21.7
C/C=C1/[C@H](OC2OC(CO)C(O)C(O)C2O)OC=C(C(=O)O)[C@H]1CC(=O)OCCc1ccc(O)c(O)c1 (stereo in doubt) [GS6]	41.9

Respectfully, I request Deoxyribose Degradation Assay IC50 for each entry included below.
1. C/C=C1/[C@H](O[C@@H]2O[C@H](CO)[C@@H](O)[C@H](O)[C@H]2O)OC=C(C(=O)OC)[C@H]1CC(=O)OCCc1ccc(O)c(O)c1 [GS1, oleuropein]
2. C/C=C(/C=O)[C@@H](CC=O)CC(=O)SCCc1ccccc1 [GS27]
3. C/C=C(/C=O)[C@@H](CC=O)CC(=O)OCCCSC [GS28]
4. C/C=C(/C=O)[C@@H](CC=O)CC(=O)OCCc1cccc(O)c1 [GS20]
5. C/C=C(/C=O)[C@@H](CC=O)CC(=O)OCc1cc2ccccc2[nH]1 [GS25]
6. C/C=C(/C=O)[C@@H](CC=O)CC(=O)OCCCCCCCCCCCCCCCC [GS26]
7. C/C=C(/C=O)[C@@H](CC=O)CC(=O)OCCC1CCCCC1 [GS22]

Given back:
[80.8, 16.4, 12.3, 20, 16.2, 21.3, 16.8]

Asked: Please give the measured Deoxyribose Degradation Assay IC50 for this compound: C/C=C(/C=O)[C@@H](CC=O)CC(=O)OCC12CC3CC(CC(C3)C1)C2 [GS23]
Given back: 17.6

---

Test system: MDA-MB-231 triple negative breast cancer cells
Assay: XTT cell growth assay, MDA-MB-231
Assay type: cell-based, human
Conditions: Homo sapiens, MDA-MB-231, 24 h, NS = not statistically significant, read-out: Effectiveness to suppress MDA-MB-231 cell growth (cell growth inhibition)
Text: The XTT assay is used to measure cellular metabolic activity as an indicator of cell viability, proliferation and cytotoxicity. […] The XTT assay is based on the reduction of a yellow tetrazolium salt (sodium 3′-[1-(phenylaminocarbonyl)-3,4-tetrazolium]-bis (4-methoxy6-nitro) benzene sulfonic acid hydrate or XTT) to an orange formazan dye by metabolically active cells (FIG. 8). […] This increase directly correlates to the amount of orange formazan formed, as monitored by the absorbance. […]
Each entry falls in a class defined on inhibition at 50 µM; the bands are 0: < 50%; 1: ≥ 50% and < 60%; 2: ≥ 60%

Here's what some known entries look like.
molecule	label_class
C/C=C1/[C@H](OC2OC(CO)C(O)C(O)C2O)OC=C(C(=O)O)[C@H]1CC(=O)SCCc1ccccc1 (stereo in doubt) [GS11]	2
C/C=C(/C=O)[C@@H](CC=O)CC(=O)OC [GS16]	0
C/C=C(/C=O)[C@@H](CC=O)CC(=O)OCCc1ccccc1 [GS21]	1
C/C=C1/[C@H](OC2OC(CO)C(O)C(O)C2O)OC=C(C(=O)O)[C@H]1CC(=O)OCCOc1ccccc1 (stereo in doubt) [GS10]	0
C/C=C1/[C@H](OC2OC(CO)C(O)C(O)C2O)OC=C(C(=O)O)[C@H]1CC(=O)OCCc1ccc(O)c(O)c1 (stereo in doubt) [GS6]	0
C/C=C1/[C@H](OC2OC(CO)C(O)C(O)C2O)OC=C(C(=O)O)[C@H]1CC(=O)O (stereo in doubt) [GS2]	0
C/C=C(/C=O)[C@@H](CC=O)CC(=O)OCCc1cccc(O)c1 [GS20]	1
C/C=C(/C=O)[C@@H](CC=O)CC(=O)OCCCCCCCCCCCCCCCC [GS26]	0

Asked: Which class holds C/C=C(/C=O)[C@@H](CC=O)CC(=O)OCCc1ccc(O)cc1 [GS19, reference compound] ?
Given back: 1

Asked: Hi, small favor: classify C/C=C1/[C@H](OC2OC(CO)C(O)C(O)C2O)OC=C(C(=O)O)[C@H]1CC(=O)OCc1cc2ccccc2[nH]1 (stereo in doubt) [GS8] by its inhibition at 50 µM when you get a moment.
Given back: 0

Asked: Where would C/C=C1/[C@H](O[C@@H]2O[C@H](CO)[C@@H](O)[C@H](O)[C@H]2O)OC=C(C(=O)OC)[C@H]1CC(=O)OCCc1ccc(O)c(O)c1 [GS1, oleuropein] land among the classes by reported inhibition at 50 µM?
Given back: 0

Asked: Which class does C/C=C1/[C@H](OC2OC(CO)C(O)C(O)C2O)OC=C(C(=O)O)[C@H]1CC(=O)OCCc1ccc(O)cc1 (stereo in doubt) [GS7] fall in?
Given back: 0

Asked: Dear colleague, I would appreciate it if you could identify the bin for C/C=C(/C=O)[C@@H](CC=O)CC(=O)OCCc1ccc(O)c(O)c1 [GS17, reference compound] and reply at your convenience.
Given back: 0

Asked: Which category does the recorded inhibition at 50 µM put C/C=C1/[C@H](OC2OC(CO)C(O)C(O)C2O)OC=C(C(=O)O)[C@H]1CC(=O)OCCCSC (stereo in doubt) [GS9] in?
Given back: 2

Asked: Bin this entry: C/C=C1/[C@H](OC2OC(CO)C(O)C(O)C2O)OC=C(C(=O)O)[C@H]1CC(=O)OCC12CC3CC(CC(C3)C1)C2 (stereo in doubt) [GS3]
Given back: 2

Asked: Which inhibition at 50 µM category applies to C/C=C(/C=O)[C@@H](CC=O)CC(=O)OCCOc1ccccc1 [GS24] here?
Given back: 2
